Tested on: U2OS
Test: Incucyte cell viability with U2OS; further: unitless GR value; below 1 slowed growth and below 0 cell loss
Type: toxicity, cell-based
Conditions: human, 6 h, 10 µM, compound concentration 10 uM, replicate number 2
// thresholds for Growth Rate classes: lower segment = under 0.5, middle segment = from 0.5 up to 0.8, upper segment = 0.8 and over

Cc1ccccc1Oc1cc(-n2c(=O)cc(C(F)(F)F)[nH]c2=O)c2ccccc2c1Cl
middle segment
Cc1ccc(S(=O)(=O)Nc2ccc(-n3nc(C(F)(F)F)cc3C(F)(F)F)cc2)cc1
middle segment
Cc1cc(Cn2c(N3CC4(CNC4)C3)nc3c(N4CCN(C)CC4)cc(Cl)cc32)cc(C)c1F
lower segment
CCn1c(-c2nonc2N)nc2c(C#CC(C)(C)O)ncc(OCC3CCCNC3)c21 (stereo not drawn)
lower segment
Cc1nnc2n1-c1sc3c(c1C(c1ccccc1Cl)=NC2)CC(C(=O)N1CCOCC1)C3 (stereo not drawn)
upper segment

Problem: Hi, small favor: classify "COc1ccccc1C(=O)Nc1cccc(NC(=O)c2cccc(C)c2)c1" by its Growth Rate when you get a moment.
Result: middle segment

Problem: And for CN(C)C(=O)c1cc2cnc(Nc3ccc(N4CCN(CCCCNC(=O)COc5cccc6c5C(=O)N(C5CCC(=O)NC5=O)C6=O)CC4)cn3)nc2n1C1CCCC1 (stereo not drawn) ?
Result: middle segment

* * *

Tested on: Fibroblast
Test: Incucyte cell viability with human fibroblast; further: unitless GR value; below 1 slowed growth and below 0 cell loss
Format: toxicity, cell-based
Conditions: 12 h, 10 µM, compound concentration 10 uM, replicate number 2
assay.readout: Growth Rate
Reply with the value as a number alone.

Answered examples (6):
Cc1ccc(-c2c(C(=O)CF)n(CCCO)c3ncnc(N)c23)cc1
-0.21
FC(F)(F)Oc1ccc(-c2ccc3nnc(C(F)(F)F)n3c2)cc1
0.76
Cc1ccc(S(=O)(=O)O)cc1.Cn1cc(Nc2nccc(N3CC4CCC(C3)N4C(=O)[C@@H]3CC3(F)F)n2)cn1
0.69
O=C1NC(=Nc2c(Cl)cccc2Cl)S/C1=C\c1ccc2nccnc2c1
0.96
COc1cc(-c2cn(C)c(=O)c3cnccc23)cc(OC)c1CN(C)C
0.15
COCCOCn1c(S(C)(=O)=O)nc2c1c(=O)n(C)c(=O)n2C
0.03

Problem: Observed Growth Rate on Fibroblast for "Cn1cc(-n2cnc3c(NCc4nc5cc(Cl)c(Cl)cc5[nH]4)nc(N4CCOCC4)nc32)cn1" , please.
Result: -0.22

Problem: And for "CN[C@@H](C)C/C=C/c1cncc(OC(C)C)c1" ?
Result: 0.98

* * *

Listed here are molecules together with their documented Growth Rate.
System: U2OS
Assay: Incucyte cell viability with U2OS; further: unitless GR value; below 1 slowed growth and below 0 cell loss
Type: toxicity, cell-based
Conditions: human, 24 h, 10 µM, compound concentration 10 uM, replicate number 1

Problem: Param item = "O=C1NCCc2c(OCCCCN3CCCCC3)cccc21" ; retrieve measured Growth Rate.
Result: 0.79

Problem: And for "C[C@@H](c1ccc(F)cc1)n1nnc2cnc3ccc(-c4ccc5ocnc5c4)cc3c21" ?
Result: 0.82

Problem: And for "CCS(=O)(=O)Nc1cccc(Oc2cc(F)cc(Nc3ccc(I)cc3F)c2NS(=O)(=O)C2CC2)c1" ?
Result: 0.78

Problem: And for "Cc1ccc(-n2nc(C(C)(C)C)cc2NC(=O)Nc2ccccc2F)cc1" ?
Result: 0.72

* * *

Tested on: U2OS
Assay: Incucyte cell viability with U2OS; further: unitless GR value; below 1 slowed growth and below 0 cell loss
Format: toxicity, cell-based
Conditions: human, 6 h, 10 µM, compound concentration 10 uM, replicate number 2
assay.readout: Growth Rate
Reply with the value as a number alone.

Answered examples (8):
O=C(O)c1ccc(S(=O)(=O)N(Cc2ccc(OC(F)(F)F)cc2)c2ncc(C(F)(F)F)cc2Cl)cc1
0.99
CCC(=O)Nc1cc(Nc2cc(NC3CC3)n3ncc(C#N)c3n2)ccc1C
0.61
CN1CCN([C@H]2CC[C@@H](n3cc(-c4ccc(Oc5ccccc5)cc4)c4c(N)ncnc43)CC2)CC1
-0.23
CC(C)CC(=O)Nc1cncc(-c2ccc3[nH]nc(-c4nc5c(-c6cccc(F)c6)cncc5[nH]4)c3c2)c1
-0.82
Cn1c(C2(NC(=O)c3ccc4c(C5CCCC5)c(-c5ncc(Br)cn5)n(C)c4c3)CCC2)nc2ccc(/C=C/C(=O)O)cc21
0.75
CC1CCN(C(=O)[C@@H](CCn2cccc2C#N)NS(=O)(=O)c2cccc3[nH]ccc23)CC1
0.85
COc1cc(C(N)=O)ccc1Nc1ncc2c(n1)N(CCC(C)C)[C@H](C)C(=O)N2C
0.39
O=C(Nc1snnc1C(=O)Nc1ccc(N2CCCC2)cc1)c1cncc(C(F)(F)F)c1
0.89

Problem: Param item = "COc1ccc(CSc2nnc(-c3ccc4ncsc4c3)o2)cc1C(F)(F)F" ; retrieve measured Growth Rate.
Result: 0.78

Problem: And for "CN(C)CC#Cc1ccc2[nH]c3c(c2c1)-c1nc(N)ncc1CCC3" ?
Result: 0.82

* * *

Tested on: Fibroblast
Test: Incucyte cell viability with human fibroblast; further: unitless GR value; below 1 slowed growth and below 0 cell loss
Assay type: toxicity, cell-based
Settings: 12 h, 10 µM, compound concentration 10 uM, replicate number 1
assay.readout: Growth Rate
Reply with the value as a number alone.

Answered examples (5):
COc1ccc(CC(=O)NC(N/C(=N/C#N)Nc2cccc3ncccc23)C(C)(C)C)cc1OC (centres undefined)
-1
O=C(O)c1ccc(-c2c[nH]c3ncc(-c4ccccc4)cc23)cc1C1CCCC1 [GSK-650394]
-1
CCOC(=O)N1CCC(CN(Cc2ccc(Cl)cc2)Cc2ccc([N+](=O)[O-])s2)C1 (centres undefined) [SR9009]
0.41
CN1CCN(c2ccnc(NCCc3ccccc3)n2)CC1 [TP-040n]
0.8
CCOC(=O)c1ccc(N2C(=O)C(O)=C(C(=O)c3ccc(OC)cc3)C2c2ccc(F)cc2)cc1 (centres undefined)
-1

Problem: Param item = "Cc1ncsc1-c1ccc(CNC(=O)[C@@H]2C[C@@H](O)CN2C(=O)[C@@H](NC(=O)CCCCNC(=O)c2ccc(-c3ccc(N4CCN(C)CC4)c(NC(=O)c4c[nH]c(=O)cc4C(F)(F)F)c3)cc2)C(C)(C)C)cc1" ; retrieve measured Growth Rate.
Result: 0.65

Problem: And for "Cc1cc(Cn2c(N3CC4(CNC4)C3)nc3c(N4CCN(C)CC4)cc(Cl)cc32)cc(C)c1F" ?
Result: -0.99

Problem: And for CCOCCn1cc(C(=O)Nc2ccc(-n3nc(-c4cccnc4)cc3C(F)(F)F)cn2)ccc1=O [BI 1935] ?
Result: 0.59

Problem: And for CC(C)(C)C1CCc2c(sc(NC(=O)c3ccco3)c2C(=O)O)C1 (centres undefined) ?
Result: -1

* * *

Test system: U2OS
Experiment: Incucyte cell viability with U2OS; further: unitless GR value; below 1 slowed growth and below 0 cell loss
Type: toxicity, cell-based
Conditions: human, 12 h, 10 µM, compound concentration 10 uM, replicate number 1
Listed here are molecules together with their documented Growth Rate.
Reply with the value as a number alone.

Answered examples (4):
O=C1COc2cc(C(=O)N(Cc3ccc(C(=O)Nc4ccncn4)cc3)C3CC3)ccc2N1
0.37
COc1cc(N[C@@H]2CCCC[C@]2(O)C(F)(F)F)ccc1F
0.68
CC(=O)Oc1ccc2c(c1)[C@@]1(C)CCC[C@](C)(C(=O)OC(=O)[C@@]3(C)CCC[C@]4(C)c5cc(OC(C)=O)ccc5CC[C@@H]34)[C@@H]1CC2 [ACETYL PODOCARPIC ACID ANHYDRIDE]
0.57
C=C(F)C(=O)N1CCN(c2nc(OC[C@@H]3CCCN3C)nc3c2CCN(c2cccc4cccc(Cl)c24)C3)C[C@@H]1CC#N
-0.94

Problem: Param item = "CCOC(=O)Nc1ccc2c(c1)N(C(=O)CN(CC)CC)c1ccccc1CC2" ; retrieve measured Growth Rate.
Result: 0.75

Problem: And for "COCc1c(-c2cc3cc(C)cc(OC)c3s2)c2c(N)ncnn2c1CN[C@@H]1CCNC1=O" ?
Result: 0.45

* * *

Tested on: Fibroblast
Assay: Incucyte cell viability with human fibroblast; further: unitless GR value; below 1 slowed growth and below 0 cell loss
Format: toxicity, cell-based
Details: 12 h, 10 µM, compound concentration 10 uM, replicate number 1
Outcome label depends on Growth Rate relative to 0.7: at/above gives t, below gives f.

Use these answered entries as a reference point.
CC(=O)Nc1nc(CN2CCC[C@H](Cc3cc(C)nc(C)c3)C2)cs1 [JNJ-73924149]
t
Cn1cc(NC(=O)c2ccc3nc4n(c3c2)CCCNC4=O)nc1C(=O)NC1CCCC1
f
FC(F)(F)c1ccc(Nc2ncnc3cc(-c4ncccc4C(F)(F)F)ccc23)cc1 [NGD-8243]
f

Problem: Does CCCCc1oc2ccccc2c1C(=O)c1cc(I)c(OCCN(CC)CC)c(I)c1.Cl [AMIODARONE HYDROCHLORIDE] have a reported Growth Rate of at least 0.7?
Result: f

Problem: And for "COc1ccccc1[C@@H]1CNCCC12CCN(C(=O)[C@](OC)(c1ccccc1)C(F)(F)F)CC2" ?
Result: t

* * *

Tested on: Fibroblast
Assay: Incucyte cell viability with human fibroblast; further: unitless GR value; below 1 slowed growth and below 0 cell loss
Assay type: toxicity, cell-based
Conditions: 12 h, 10 µM, compound concentration 10 uM, replicate number 2
assay.readout: Growth Rate
Reply with the value as a number alone.

CCCCc1oc2ccccc2c1C(=O)c1cc(I)c(OCCN(CC)CC)c(I)c1.Cl [AMIODARONE HYDROCHLORIDE]
-0.27
COc1cc(-c2cncc(-c3cnn(C4CCNCC4)c3)c2)cc(OC)c1OC
0.97
CN(C(=O)c1cnn2cccnc12)c1cc2c(cc1N1CCOCC1)C(=O)N(C[C@@H](F)C(C)(C)O)C2
0.89
N=C(N)NCCC[C@H](NC(=O)C(c1ccccc1)c1ccccc1)C(=O)NCc1ccc(CNC(N)=O)cc1.O=C(O)C(F)(F)F
0.52
CNc1nc(-c2ccc3c(N)n[nH]c3c2)cc(N2C[C@@H](C(=O)NC3CCCCC3)CC[C@H]2C)n1
0.96

Problem: Observed Growth Rate on Fibroblast for "NC(=O)c1ccc(-c2nc(-c3ccc4c(c3)OCCO4)c(-c3ccccn3)[nH]2)cc1" , please.
Result: 0.45

Problem: And for "Cc1onc(-c2ccc(F)cc2)c1COc1ccc(C(=O)N2CCS(=O)(=O)CC2)cn1" ?
Result: 0.69

Problem: And for "C1CCC(NC2CCCCC2)CC1.Cc1cc(Cl)ccc1S(=O)(=O)NC[C@H]1C2CCC(CC2)[C@@H]1/C=C\CCCC(=O)O" ?
Result: 0.97

Problem: And for "CC(C)(c1ccc(O)cc1)c1ccc(O)cc1" ?
Result: 0.83

Problem: And for "C=CC[C@@H]1/C=C(\C)C[C@H](C)C[C@H](OC)[C@H]2O[C@@](O)(C(=O)C(=O)N3CCCC[C@H]3C(=O)O[C@H](/C(C)=C/[C@@H]3CC[C@@H](O)[C@H](OC)C3)[C@H](C)[C@@H](O)CC1=O)[C@H](C)C[C@@H]2OC.O" ?
Result: 0.85

Problem: And for "CC[C@]1(C)C[C@@H](OC(=O)CSc2nnc(N)[nH]2)[C@@]2(C)[C@H](C)CC[C@@]3(CCC(=O)[C@H]32)[C@@H](C)[C@@H]1O" ?
Result: 0.82

Hello, the source for this data is ChEMBL document CHEMBL5303304, in case you need it.
